Test system: 5-Lipoxygenase
assayProtocol: 5-Lipoxygenase inhibitory activity, colorimetric method (ferric xylenol orange, linoleic acid)
Format: biochemical
testSettings: 100 μM
quantityName: % inhibition of 5-Lox activity (%)
Give bare numbers, in %.

# molecule, subjectOfTest, quantityName, measuredValue
rows = [
    ("CC1CCC2(C(=O)NCCN)CCC3(C)C(=CCC4C5(C)CC(O)C(O)C(C)(C)C5CCC43C)C2C1C (centres unmarked) [Compound 10, N-(2-Aminoethyl)corosolamide]", "5-Lipoxygenase", "% inhibition of 5-Lox activity", 21.74),
    ("CC(N)C(=O)OC1CC2(C)C(CCC3(C)C2CC=C2C4C(C)C(C)CCC4(C(=O)O)CCC23C)C(C)(C)C1O.Cl (centres unmarked) [Compound 5, 2-O-Alanylcorosolic acid hydrochloride]", "5-Lipoxygenase", "% inhibition of 5-Lox activity", 29.14),
    ("CC(Cc1ccc(O)c(O)c1)C(C)Cc1ccc(O)c(O)c1 (centres unmarked) [NDGA, Nordihydroguaiaretic acid, reference compound]", "5-Lipoxygenase", "% inhibition of 5-Lox activity", 70.4),
]

Record % inhibition of 5-Lox activity per entry; entries follow.
1. C[C@H]1[C@H](C)CC[C@]2(C(=O)Nc3ccccc3)CC[C@]3(C)C(=CC[C@@H]4[C@@]5(C)C[C@@H](O)[C@H](O)C(C)(C)[C@@H]5CC[C@]43C)[C@H]12 [Compound 9, N-Phenylcorosolamide]
2. CC(=O)O[C@@H]1C[C@]2(C)[C@H]3CC=C4[C@@H]5[C@@H](C)[C@H](C)CC[C@]5(C(=O)O)CC[C@@]4(C)[C@]3(C)CC[C@H]2C(C)(C)[C@H]1OC(C)=O

Solution:
[8.16, 20.08]

---

Tested on: 5-Lipoxygenase
assayProtocol: 5-Lipoxygenase inhibitory activity, colorimetric method (ferric xylenol orange, linoleic acid)
Type: biochemical
testSettings: 100 μM
quantityName: % inhibition of 5-Lox activity
Mention the unit after the number when you answer.

Examples with their reported % inhibition of 5-Lox activity follow.
# compound, subjectOfTest, % inhibition of 5-Lox activity
rows = [
    ("CC1CCC2(C(=O)N3CCNCC3)CCC3(C)C(=CCC4C5(C)CC(O)C(O)C(C)(C)C5CCC43C)C2C1C (centres unmarked)", "5-Lipoxygenase", "35.42%"),
    ("C[C@H]1[C@H](C)CC[C@]2(C(N)=O)CC[C@]3(C)C(=CC[C@@H]4[C@@]5(C)C[C@@H](O)[C@H](O)C(C)(C)[C@@H]5CC[C@]43C)[C@H]12 [Compound 8, Corosolamide]", "5-Lipoxygenase", "26.13%"),
]

Look at each compound and report its % inhibition of 5-Lox activity.
1. C[C@H]1[C@H](C)CC[C@]2(C(=O)O)CC[C@]3(C)C(=CC[C@@H]4[C@@]5(C)C[C@@H](O)[C@H](O)C(C)(C)[C@@H]5CC[C@]43C)[C@H]12 [Corosolic acid, 2α-hydroxyursolic acid]
2. CC1CCC2(C(=O)NCCO)CCC3(C)C(=CCC4C5(C)CC(O)C(O)C(C)(C)C5CCC43C)C2C1C (centres unmarked) [Compound 12, N-(2-Hydroxyethyl)corosolamide]
3. C[C@H]1[C@H](C)CC[C@]2(C(N)=O)CC[C@]3(C)C(=CC(=O)[C@@H]4[C@@]5(C)C[C@@H](O)[C@H](O)C(C)(C)[C@@H]5CC[C@]43C)[C@H]12 [Compound 20, 11-Ketocorosolamide]

Solution:
1. 13.48%
2. 17.74%
3. 18.57%
